Target: T1, recombinant N-terminal extracellular domain of the human PTH1R receptor (human, UniProt Q03431 27-188, limits assumed)
T1 construct: domain: N-terminal extracellular domain; Bought reagent; also called N-ECD PTH1R; PTH1R N-terminal ECD
T1 sequence (looked up): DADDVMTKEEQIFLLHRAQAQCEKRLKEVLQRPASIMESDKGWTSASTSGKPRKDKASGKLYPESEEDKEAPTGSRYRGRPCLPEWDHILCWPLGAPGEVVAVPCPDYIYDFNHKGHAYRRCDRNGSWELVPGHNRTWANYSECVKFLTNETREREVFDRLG
Assay: SPR, IgG captured, ECD injected
Experimental: An anti-human IgG-Fc CMS sensor chip (GE Healthcare) was prepared using standard amine coupling as described by the manufacturer's protocol for the capture Ab on a BIACORE 4000 system (GE Healthcare). […] The data were analyzed using BIACORE 4000 Evaluation Software and was double referenced by subtracting both the blank flow cell data and the averaged bracketing blank injections. […]
Value Kind: Kd

Consider the following illustrative entries.
[
  {
    "Binder": "XPA.85.347 (antibody, V domains shown, Light-chain-shuffled variant of XPA.85.012) VH: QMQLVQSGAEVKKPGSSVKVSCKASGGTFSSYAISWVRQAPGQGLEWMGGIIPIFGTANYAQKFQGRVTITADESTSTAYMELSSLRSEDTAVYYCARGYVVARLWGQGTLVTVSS VL: DIVMTQTPLSLSVTPGQPASISCKSSQSLFHDHGRTHLSWYLQKPGQPPQLLIFEASNRFSGVPDRFSGSGSGTDFTLKISRVEAEDVGVYYCMQGIHLPPAFGGGTKLEIK",
    "Value Observed": "870 pM"
  },
  {
    "Binder": "XPA.85.344 (antibody, V domains shown, Light-chain-shuffled variant of XPA.85.012) VH: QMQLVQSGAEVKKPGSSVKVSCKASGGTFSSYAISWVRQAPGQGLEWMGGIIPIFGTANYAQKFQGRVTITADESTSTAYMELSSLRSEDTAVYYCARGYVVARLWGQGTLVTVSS VL: DVVMTQTPLSLSVTPGQPASFSCKSTQSLLWRDGNTYLYWYLQKPGQSPQLLIYEVSGRFSGVPERFSGSGSGTDFTLEISRVEAEDVGVYYCMQSIHFPLTFGGGTKLEIK",
    "Value Observed": "180 pM"
  },
  {
    "Binder": "XPA.85.335 (antibody, V domains shown, Light-chain-shuffled variant of XPA.85.017) VH: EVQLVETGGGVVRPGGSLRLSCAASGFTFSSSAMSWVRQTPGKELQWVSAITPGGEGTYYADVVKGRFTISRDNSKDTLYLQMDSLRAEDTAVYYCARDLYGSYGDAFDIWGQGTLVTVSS VL: QSVLTQPPSVSAAPGQRVTISCSGNTSNIGNNFVSWYQQLPGTAPKLLIYDDNKRPSGIPDRFSGSKSGTSATLGISGLQTGDEADYYCGTWDNSLNPPWVFGGGTQLTVL",
    "Value Observed": "2400 pM"
  }
]

// XPA.85.287 (antibody, V domains shown, also called Ab287) VH: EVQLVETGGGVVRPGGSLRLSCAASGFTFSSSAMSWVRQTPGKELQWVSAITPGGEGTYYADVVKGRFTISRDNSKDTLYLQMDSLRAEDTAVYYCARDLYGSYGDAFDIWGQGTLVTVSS VL: SYVLTQPPSVSVAPGQTARITCSGDKLGDRYVSWYQQKPGQSPVLVMFEDTGRPAGIPERFSGSNSGNTATLTISGTQAEDEADYYCQAWGTSWVFGGGTQLTVL : Kd value = 99 pM
